Every entry's value here was drawn from paper PMC9239094.

Biological target: the molecule itself
Assay: cryo-EM structure; single-particle cryo-EM of the complex purified in LMNG (Strep-Tactin XT, then SEC); samples at A280 of 1 on Quantifoil Au R1.2/1.3 grids, blotted at 4°C; SthGldLM′ also with fluorinated octyl maltoside in buffer W (100 mM Tris-HCl pH 8.0, 150 mM NaCl, 1 mM EDTA) plus 0.01% LMNG
Let's look at some proteins and their measured stoichiometry N.

{"protein": "Capnocytophaga canimorsus GldM″ (GldM truncated after the D2 periplasmic domain, twin-Strep-tagged) (domain or fragment) MAGGNSPRQKMINLMYLVFISMLALNMGKEVLSAFGLMNEKLEASNEKANNANINAIQALEQNNAENPDQFAEAFQKSKKVKELSDSFYNYIEGIKGEVMNQVGEDKKDYQVMDKSDYLDQKFFVGDNYKPEGEEFVRQINDYKTQLVELLGGKEGTYGELVGKIDGNFNTNDVVDREGVTRKWLNYNFEGFPYIASVAKLSMMQSDIRATEQEVYAEMLKGQLKSQISMTNYTTLLEQSKGAYYQGESFDGAIVLGRKDASTRPNEVELMLDGRKLSASEFQIEDGKVKLKVGAGNAGEHKITGNLYFDQDGKRIAVPVSQVFSTIPKPENLYFQGQFGSWSHPQFEKGGGSGGGSGGGSWSHPQFEK", "stoichiometry N": 2}
{"protein": "Porphyromonas gingivalis PorM′ (PorM truncated after the first periplasmic D1 domain, twin-Strep-tagged) (domain or fragment) MAVGSNGNANRQKMINLMYLVFIAMMALNVSSEVLDGFDKVDKSLTSSIDGSDKRNNLVLSELNTAYRTNPEKVKVWYERSLVLQKEADSLCTFIDDLKLAIARESDGKDAKVNDIRRKDNLDASSVVMLNPINGKGSTLRKEVDKFRELVATLMTDKAKLKLIEQALNTESGTKGKSWESSLFENMPTVAAITLLTKLQSDVRYAQGEVLADLVKSVDVGDYRVNS", "stoichiometry N": 2}
